measured-on: human hNET (Homo sapiens)
Construct: expressed in transfected cells
Sequence (P23975 whole entry): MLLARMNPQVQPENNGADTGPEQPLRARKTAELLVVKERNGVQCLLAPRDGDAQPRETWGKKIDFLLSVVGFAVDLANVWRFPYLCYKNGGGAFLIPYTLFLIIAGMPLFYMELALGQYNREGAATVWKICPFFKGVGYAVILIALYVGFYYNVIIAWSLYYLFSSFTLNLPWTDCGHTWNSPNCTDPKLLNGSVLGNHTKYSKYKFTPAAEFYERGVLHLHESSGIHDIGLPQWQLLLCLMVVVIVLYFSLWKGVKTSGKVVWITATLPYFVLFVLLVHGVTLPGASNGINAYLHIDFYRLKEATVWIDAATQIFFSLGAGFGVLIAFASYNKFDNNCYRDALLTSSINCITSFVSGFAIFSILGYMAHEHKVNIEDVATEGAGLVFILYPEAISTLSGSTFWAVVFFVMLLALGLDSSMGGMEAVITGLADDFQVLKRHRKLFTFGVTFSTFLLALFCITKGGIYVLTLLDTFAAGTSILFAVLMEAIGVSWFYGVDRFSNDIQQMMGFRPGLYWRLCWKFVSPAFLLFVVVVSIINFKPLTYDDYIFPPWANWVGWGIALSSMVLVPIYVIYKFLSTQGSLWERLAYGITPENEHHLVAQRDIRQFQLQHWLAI
assay-procedure: Norepinephrine (NE) uptake assay
Format: cell-based
condition-info: 1 μM test compound; MDCK-Net6 cells stably transfected with human hNET; [3H]NE uptake
Experimental: MDCK-Net6 cells, stably transfected with human hNET (Pacholczyk, T., R. D. Blakely, and S. G. Amara, Nature, 1991, 350(6316): p. 350-4) were cultured in growth medium containing high glucose DMEM (Gibco, Cat. No. 11995), 10% FBS (dialyzed, heat-inactivated, US Bio-Technologies, Lot FBD1129HI) and 500 µg/ml G418 (Gibco, Cat. No. 10131). Cells were plated at 300,000/T75 flask and cells were split twice weekly. […]
Counter-ions that a name gives are not always drawn.
parameter: inhibition at 1 µM (%)

CNC[C@@H](O)[C@H](c1cccc(F)c1)N1CCSc2ccccc21 [Example 18, hydrochloride]	90.4

[I] CNC[C@@H](O)[C@H](c1ccccc1)N1CCOc2ccccc21 (racemic) [Example 2, dihydrochloride]
[II] CNC[C@@H](O)[C@H](c1cc(F)cc(F)c1)N1CCOc2ccc(Cl)cc21 [Example 8, hydrochloride]
[III] CNC[C@@H](O)[C@H](c1ccccc1)N1CCN(CC(F)(F)F)c2ccccc21 (racemic) [Example 5, hydrochloride]
query: Write the entries in order, lowest recorded inhibition at 1 µM first. In plain terms: list the labels in the order you were asked to.
result: II, I, III
(II: 12.5%, I: 33.7%, III: 52.9%)

[I] CNC[C@@H](O)[C@H](c1ccccc1)N1CCN(C)c2ccccc21 (racemic) [Example 4, hydrochloride]
[II] CNC[C@@H](O)[C@H](c1ccccc1)N1CC(C)(C)Oc2ccccc21 [Example 17, hydrochloride]
query: Between these two entries, I and II , state which has the higher inhibition at 1 µM. Which one? Tell me its label.
result: I
(I: 46.2%, II: 9.3%)
